Every entry's value here was drawn from PubChem BioAssay (NCI).

# Tested on: OVCAR-5 ovarian
# Measurement notes: NCI tumour cell line growth inhibition, 48 h; in the data active means GI50 below about 0.43 µM; inactive means the rest
Assign a class; possible classes are True for active, False for inactive

## Task Query: recorded result category for `O=C(CN1CCN(C(=O)c2ccco2)CC1)Nc1ccc(Cl)cc1C(=O)c1ccccc1Cl` in this test
## Result False

## Task Any idea what this test logged for `C[C@]12CC[C@H]3[C@@H](CC[C@]4(O)C[C@@H](O[C@@H]5O[C@H](CO)[C@@H](O[C@@H]6OC[C@@H](O)[C@H](O)[C@H]6O)[C@H](O)[C@H]5O)CC[C@]34C=O)[C@@]1(O)CC[C@@H]2C1=CC(=O)OC1` ?
## Result False

## Task Each compound tested received a call. Report the one for `CN(C)C1CN(C(=O)c2cc(-c3ccc4ncnc(N5CCc6cc(F)c(Cl)cc65)c4c3)cnc2N)C1` .
## Result False

## Task Dear colleague, could you share the recorded outcome for `COc1cc(C)[nH]c(=O)c1CNC(=O)c1c(C)n([C@H](C)C2CCN(CC(F)(F)F)CC2)c2ccccc12` when you have a moment?
## Result False

## Task Query: recorded result category for `CN(C)c1ccc(/C=c2/c3cc(O)ccc3n3c2cc(-c2ccccc2)[n+]3C)cc1` in this test
## Result False

## Task I would be grateful if you could indicate the recorded call for CCCCCCCCCC[C@H](O)[C@H]1CC[C@@H]([C@@H](O)CC[C@H](O)[C@@H]2CCC(CCCCCCC[C@@H](O)CC3=C[C@H](C)OC3=O)O2)O1 (some centres not stated) .
## Result False

## Task Given `COc1ncc(-c2ccc3nccc(C#CCCCCC(=O)NO)c3c2)cc1NS(=O)(=O)c1ccc(F)cc1F` , state the outcome it received in this test.
## Result True
